- protocol.description: Partition coefficients n-octanol/deionized water and n-octanol/PBS
- Type: physicochemical
- protocol.conditions: n-octanol/PBS pH 7.4, 37° C., 24 hours
The threshold is 6. Values of O/PBS Coefficient (KOPBS) beneath it are tagged y; values meeting or exceeding it are tagged n.

[[record]]
substance = "D-2-Nal-c(Cys-Tyr-D-Trp-Lys-Val-Cys)-Thr-NH2 [Compound A di-nonanoate]"
category_label = "n"

[[record]]
substance = "[4-(2-hydroxyethyl)]-1-piperazinylacetyl-D-Phe-c(Cys-Tyr-D-Trp-Lys-Abu-Cys)-Thr-NH2 [Compound B di-oleate]"
category_label = "y"

[[record]]
substance = "D-2-Nal-c(Cys-Tyr-D-Trp-Lys-Val-Cys)-Thr-NH2 [Compound A di-laurate]"
category_label = "n"

[[record]]
substance = "D-2-Nal-c(Cys-Tyr-D-Trp-Lys-Val-Cys)-Thr-NH2 [Compound A di-myristate]"
category_label = "n"

[[record]]
substance = "D-2-Nal-c(Cys-Tyr-D-Trp-Lys-Val-Cys)-Thr-NH2 [Compound A di-octanoate]"
category_label = "n"

[[record]]
substance = "D-2-Nal-c(Cys-Tyr-D-Trp-Lys-Val-Cys)-Thr-NH2 [Compound A di-decanoate]"
category_label = "n"

[[record]]
substance = "[4-(2-hydroxyethyl)]-1-piperazinylacetyl-D-Phe-c(Cys-Tyr-D-Trp-Lys-Abu-Cys)-Thr-NH2 [Compound B di-acetate]"
category_label = "y"

[[record]]
substance = "D-2-Nal-c(Cys-Tyr-D-Trp-Lys-Val-Cys)-Thr-NH2 [Compound A di-linoleate]"
category_label = "n"


----------
- protocol.description: Partition coefficients n-octanol/deionized water and n-octanol/PBS
- Assay type: physicochemical
- protocol.conditions: n-octanol/deionized water, 37° C., 24 hours
outcome.measure: Log KOW

[[record]]
substance = "D-2-Nal-c(Cys-Tyr-D-Trp-Lys-Val-Cys)-Thr-NH2 [Compound A di-myristate]"
outcome_measure = "Log KOW"
result = 2.610

[[record]]
substance = "D-2-Nal-c(Cys-Tyr-D-Trp-Lys-Val-Cys)-Thr-NH2 [Compound A di-octanoate]"
outcome_measure = "Log KOW"
result = 2.794

[[record]]
substance = "[4-(2-hydroxyethyl)]-1-piperazinylacetyl-D-Phe-c(Cys-Tyr-D-Trp-Lys-Abu-Cys)-Thr-NH2 [Compound B di-acetate]"
outcome_measure = "Log KOW"
result = "−2.000"

[[record]]
substance = "D-2-Nal-c(Cys-Tyr-D-Trp-Lys-Val-Cys)-Thr-NH2 [Compound A di-nonanoate]"
outcome_measure = "Log KOW"
result = 2.723

[[record]]
substance = "D-2-Nal-c(Cys-Tyr-D-Trp-Lys-Val-Cys)-Thr-NH2 [Compound A di-linoleate]"
outcome_measure = "Log KOW"
result = 1.917

[[record]]
substance = "D-2-Nal-c(Cys-Tyr-D-Trp-Lys-Val-Cys)-Thr-NH2 [Compound A di-laurate]"
outcome_measure = "Log KOW"
result = 2.943

[[record]]
substance = "[4-(2-hydroxyethyl)]-1-piperazinylacetyl-D-Phe-c(Cys-Tyr-D-Trp-Lys-Abu-Cys)-Thr-NH2 [Compound B di-oleate]"
outcome_measure = "Log KOW"
result = 2.532

[[record]]
substance = "D-2-Nal-c(Cys-Tyr-D-Trp-Lys-Val-Cys)-Thr-NH2 [Compound A di-decanoate]"
outcome_measure = "Log KOW"
result = 2.325


----------
- protocol.description: Partition coefficients n-octanol/deionized water and n-octanol/PBS
- Format: physicochemical
- protocol.conditions: n-octanol/deionized water, 37° C., 24 hours
Some substances, each annotated with its measured O/W Coefficient (KOW).
outcome.measure: O/W Coefficient (KOW)

[[record]]
substance = "D-2-Nal-c(Cys-Tyr-D-Trp-Lys-Val-Cys)-Thr-NH2 [Compound A di-nonanoate]"
result = 528.50

[[record]]
substance = "D-2-Nal-c(Cys-Tyr-D-Trp-Lys-Val-Cys)-Thr-NH2 [Compound A di-myristate]"
result = 407.50

[[record]]
substance = "D-2-Nal-c(Cys-Tyr-D-Trp-Lys-Val-Cys)-Thr-NH2 [Compound A di-octanoate]"
result = 622.86

[[record]]
substance = "D-2-Nal-c(Cys-Tyr-D-Trp-Lys-Val-Cys)-Thr-NH2 [Compound A di-decanoate]"
result = 211.53

[[record]]
substance = "[4-(2-hydroxyethyl)]-1-piperazinylacetyl-D-Phe-c(Cys-Tyr-D-Trp-Lys-Abu-Cys)-Thr-NH2 [Compound B di-acetate]"
result = 0.01

[[record]]
substance = "D-2-Nal-c(Cys-Tyr-D-Trp-Lys-Val-Cys)-Thr-NH2 [Compound A di-laurate]"
result = 876.40

[[record]]
substance = "[4-(2-hydroxyethyl)]-1-piperazinylacetyl-D-Phe-c(Cys-Tyr-D-Trp-Lys-Abu-Cys)-Thr-NH2 [Compound B di-oleate]"
result = 340.43

[[record]]
substance = "D-2-Nal-c(Cys-Tyr-D-Trp-Lys-Val-Cys)-Thr-NH2 [Compound A di-linoleate]"
result = 82.52


----------
- protocol.description: Solubility of somatostatin fatty-acid salts
- Type: physicochemical
- protocol.conditions: deionized water, 37° C., 24 hours; read-out: Solubility DI H2O
outcome.measure: solubility (µg/mL)

[[record]]
compound = "CC(C)[C@@H]1NC(=O)[C@H](CCCCN)NC(=O)[C@@H](Cc2c[nH]c3ccccc23)NC(=O)[C@H](Cc2ccc(O)cc2)NC(=O)[C@@H](NC(=O)[C@H](N)Cc2ccc3ccccc3c2)CSSC[C@@H](C(=O)N[C@H](C(N)=O)[C@@H](C)O)NC1=O [Compound A di-oleate]"
readout_unit = "µg/mL"
quantitative_result = 35


----------
A collection of substances and their measured Log KOPBS
- protocol.description: Partition coefficients n-octanol/deionized water and n-octanol/PBS
- Assay type: physicochemical
- protocol.conditions: n-octanol/PBS pH 7.4, 37° C., 24 hours
outcome.measure: Log KOPBS

[[record]]
substance = "D-2-Nal-c(Cys-Tyr-D-Trp-Lys-Val-Cys)-Thr-NH2 [Compound A di-laurate]"
quantitative_result = 0.854

[[record]]
substance = "D-2-Nal-c(Cys-Tyr-D-Trp-Lys-Val-Cys)-Thr-NH2 [Compound A di-octanoate]"
quantitative_result = 0.827

[[record]]
substance = "D-2-Nal-c(Cys-Tyr-D-Trp-Lys-Val-Cys)-Thr-NH2 [Compound A di-myristate]"
quantitative_result = 0.806

[[record]]
substance = "D-2-Nal-c(Cys-Tyr-D-Trp-Lys-Val-Cys)-Thr-NH2 [Compound A di-linoleate]"
quantitative_result = 0.866

[[record]]
substance = "[4-(2-hydroxyethyl)]-1-piperazinylacetyl-D-Phe-c(Cys-Tyr-D-Trp-Lys-Abu-Cys)-Thr-NH2 [Compound B di-oleate]"
quantitative_result = "−1.398"

[[record]]
substance = "D-2-Nal-c(Cys-Tyr-D-Trp-Lys-Val-Cys)-Thr-NH2 [Compound A di-nonanoate]"
quantitative_result = 0.811

[[record]]
substance = "[4-(2-hydroxyethyl)]-1-piperazinylacetyl-D-Phe-c(Cys-Tyr-D-Trp-Lys-Abu-Cys)-Thr-NH2 [Compound B di-acetate]"
quantitative_result = "−2.000"

[[record]]
substance = "D-2-Nal-c(Cys-Tyr-D-Trp-Lys-Val-Cys)-Thr-NH2 [Compound A di-decanoate]"
quantitative_result = 0.844

